tested on: SW620 cells (KRAS G12V); assay: Cell-based pERK HTRF assay in SW620 cell (Biological Example 4); conditions: Homo sapiens, SW-620, SW620 (KRAS G12V) cells, pERK HTRF
pIC50: −log10 of the molar value.
readout_label: pIC50

Answered cases to consult:
CCN(c1nc(OC[C@@]23CCCN2C[C@H](F)C3)nc2c(F)c(-c3ccc(F)c4sc(N)c(C#N)c34)c(C(F)(F)F)cc12)[C@H]1C[C@H](C)N(C(=O)COC)C1 (atropisomer, axis not shown) | > 7.00
CCC(=O)N1CC[C@@H](N(C)c2nc(OC[C@@]34CCCN3C[C@H](F)C4)nc3c(F)c(-c4ccc(F)c5sc(N)c(C#N)c45)c(C(F)(F)F)cc23)[C@H]1CC | 6.00 to 7.00

GET /value?item= C[C@@H]1[C@H](N(C)c2nc(OC[C@@]34CCCN3C[C@H](F)C4)nc3c(F)c(-c4ccc(F)c5sc(N)c(C#N)c45)c(C(F)(F)F)cc23)CCN1C(=O)C(C)(C)C &field=pIC50 returns > 7.00

pIC50 reading for CNC(=O)CN(C)c1nc(OC[C@@]23CCCN2C[C@H](F)C3)nc2c(F)c(-c3ccc(F)c4sc(N)c(C#N)c34)c(C(F)(F)F)cc12 : 6.00 to 7.00

Entry under test: CN(c1nc(OC[C@@]23CCCN2C[C@H](F)C3)nc2c(F)c(-c3ccc(F)c4sc(N)c(C#N)c34)c(C(F)(F)F)cc12)C1CCS(=O)(=O)CC1 . Its pIC50 was 6.00 to 7.00

###

target: Avi-KRAS G12D (1-169) GppNHp/RAF1 RBD-3xFLAG (52-151) (Homo sapiens, UniProt P01116, G12D); construct: Avi-KRAS G12D (1-169); assay: Raf1-KRAS G12D-GppNHP disruption HTRF assay (Biological Example 1); type: binding; settings: KRAS G12D, GppNHp-loaded; class symbols
Sequence (P01116 1-169 isoform P01116-2 G12D): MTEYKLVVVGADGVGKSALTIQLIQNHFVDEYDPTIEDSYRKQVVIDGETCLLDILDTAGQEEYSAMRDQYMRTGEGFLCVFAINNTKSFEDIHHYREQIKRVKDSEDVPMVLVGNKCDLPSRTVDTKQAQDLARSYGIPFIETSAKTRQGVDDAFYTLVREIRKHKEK
Here the recorded IC50 is given for each entry.

Some molecules with recorded IC50:
CCN(c1nc(OC[C@@]23CCCN2C[C@H](F)C3)nc2c(F)c(-c3ccc(F)c4sc(N)c(C#N)c34)c(C(F)(F)F)cc12)[C@H]1CCN(C(=O)CC(F)F)C1 (atropisomer, axis not shown) | < 100 nM
CCC(=O)N1C[C@@H](N(CC)c2nc(OC[C@@]34CCCN3C[C@H](F)C4)nc3c(F)c(-c4ccc(F)c5sc(N)c(C#N)c45)c(C(F)(F)F)cc23)C[C@H]1COC (atropisomer, axis not shown) | 100 to 1000 nM

Then this molecule:
Entry CCN(c1nc(OC[C@@]23CCCN2C[C@H](F)C3)nc2c(F)c(-c3ccc(F)c4sc(N)c(C#N)c34)c(C(F)(F)F)cc12)[C@H]1CCN(C(=O)[C@H]2CCCCO2)C1 (atropisomer, axis not shown) , Avi-KRAS G12D (1-169) GppNHp/RAF1 RBD-3xFLAG (52-151) (Homo sapiens, UniProt P01116, G12D) data, IC50 value: < 100 nM

###

target: Avi-KRAS G12V (1-169) GppNHp/RAF1 RBD-3xFLAG (52-151) (Homo sapiens, UniProt P01116, G12V); construct: Avi-KRAS G12V (1-169); assay: Raf1-KRAS G12V-GppNHP disruption HTRF assay (Biological Example 1); type: binding; settings: KRAS G12V-GppNHp/RAF1 RBD HTRF
Sequence (P01116 1-169 isoform P01116-2 G12V): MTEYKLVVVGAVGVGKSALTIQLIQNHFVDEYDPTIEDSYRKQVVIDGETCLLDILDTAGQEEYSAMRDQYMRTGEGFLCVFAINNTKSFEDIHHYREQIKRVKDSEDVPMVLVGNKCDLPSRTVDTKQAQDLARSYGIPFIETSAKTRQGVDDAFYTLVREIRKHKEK
pIC50: −log10 of the molar value.
readout_label: pIC50

Below, each entry is followed by its recorded pIC50 result.
[2H]C1([2H])O[C@@H]2C[C@H]1N(c1nc(OC[C@@]34CCCN3C[C@H](F)C4)nc3c(F)c(-c4ccc(F)c5sc(N)c(C#N)c45)c(C(F)(F)F)cc13)C2 | 6.00 to 7.00
CCC(=O)N1CC[C@@H](N(CC)c2nc(OC[C@@]34CCCN3C[C@H](F)C4)nc3c(F)c(-c4ccc(F)c5sc(N)c(C#N)c45)c(Cl)cc23)[C@H]1C | 6.00 to 7.00
CN1C[C@H](N(C)c2nc(OC[C@@]34CCCN3C[C@H](F)C4)nc3c(F)c(-c4ccc(F)c5sc(N)c(C#N)c45)c(C(F)(F)F)cc23)CCC1=O | 5.00 to 6.00
CCC(=O)N1CC(N(C)c2nc(OCC34CCCN3CC(F)C4)nc3c(F)c(-c4ccc(F)c5sc(N)c(C#N)c45)c(C(F)(F)F)cc23)CC1C (centres unmarked) | 5.00 to 6.00
C[C@@H]1[C@H](N(C)c2nc(OC[C@]34C[C@@H](F)CN3CC3(CC3)C4)nc3c(F)c(-c4ccc(F)c5sc(N)c(C#N)c45)c(C(F)(F)F)cc23)CCN1C(=O)C1CC1 | 5.00 to 6.00

Reported pIC50 of N#Cc1c(N)sc2c(F)ccc(-c3c(C(F)(F)F)cc4c(N5CCS(=N)(=O)CC5)nc(OC[C@@]56CCCN5C[C@H](F)C6)nc4c3F)c12 : 6.00 to 7.00

###

target: Avi-KRAS WT (2-169) GTP/RAF1 RBD-3xFLAG (51-131) (Homo sapiens, UniProt P01116); construct: Avi-KRAS WT (2-169); test: Raf1-KRAS WT-GTP disruption HTRF assay (Biological Example 3); format: binding; conditions: KRAS WT, GTP-loaded
Sequence (P01116 2-169 isoform P01116-2): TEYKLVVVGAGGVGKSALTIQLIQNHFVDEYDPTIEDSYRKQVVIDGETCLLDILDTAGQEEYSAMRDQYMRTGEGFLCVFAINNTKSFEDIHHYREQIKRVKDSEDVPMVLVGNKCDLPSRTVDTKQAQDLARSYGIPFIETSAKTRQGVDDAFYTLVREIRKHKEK
Reported IC50 values for a set of compounds

The examples below pair each entry with its known result.
CCN(c1nc(OCC23CCCN2CC(F)C3)nc2c(F)c(-c3ccc(F)c4sc(N)c(C#N)c34)c(C(F)(F)F)cc12)C1CCN(C(=O)c2ccc(Cl)s2)C1 (stereo not drawn) | 100 to 1000 nM
CCN(c1nc(OC[C@@]23CCCN2C[C@H](F)C3)nc2c(F)c(-c3ccc(F)c4sc(N)c(C#N)c34)c(C(F)(F)F)cc12)[C@H]1CCN(C(=O)c2cnc(Cl)s2)C1 (atropisomer, axis not shown) | 1000 to 10000 nM
CCN(c1nc(OC[C@@]23CCCN2C[C@H](F)C3)nc2c(F)c(-c3ccc(F)c4sc(N)c(C#N)c34)c(C(F)(F)F)cc12)[C@H]1CCN(C(=O)c2ccns2)C1 (atropisomer, axis not shown) | 100 to 1000 nM
N#Cc1c(N)sc2c(F)ccc(-c3c(C(F)(F)F)cc4c(N(C5CC5)[C@H]5CCS(=O)(=O)C5)nc(OC[C@@]56CCCN5C[C@H](F)C6)nc4c3F)c12 | > 10000 nM
CCN(c1nc(OC[C@@]23CCCN2C[C@H](F)C3)nc2c(F)c(-c3ccc(F)c4sc(N)c(C#N)c34)c(C(F)(F)F)cc12)[C@H]1C[C@H]2[C@H](C)OC(=O)N2C1 (atropisomer, axis not shown) | 100 to 1000 nM

GET /value?item= CCN(c1nc(OC[C@@]23CCCN2C[C@H](F)C3)nc2c(F)c(-c3ccc(F)c4sc(N)c(C#N)c34)c(C(F)(F)F)cc12)[C@H]1CCN(C(=O)c2ncc(C)s2)C1 (atropisomer, axis not shown) &field=IC50 returns 100 to 1000 nM

Lookup result for CCN(c1nc(OC[C@@]23CCCN2C[C@H](F)C3)nc2c(F)c(-c3ccc(F)c4sc(N)c(C#N)c34)c(C(F)(F)F)cc12)[C@H]1CC[C@H](C(=O)N(C)C)C1 (atropisomer, axis not shown) ; measured IC50: 100 to 1000 nM

Value of measured IC50 for the entry CCN(c1nc(OC[C@@]23CCCN2C[C@H](F)C3)nc2c(F)c(-c3ccc(F)c4sc(N)c(C#N)c34)c(C(F)(F)F)cc12)[C@H]1CCN(C(=O)c2cncs2)C1 (atropisomer, axis not shown; (aS)) : 100 to 1000 nM

Short answer for CCN(c1nc(OC[C@@H]2C[C@@H](OC)CN2C)nc2c(F)c(-c3ccc(F)c4sc(N)c(C#N)c34)c(C(F)(F)F)cc12)[C@H]1CCN(C(=O)C(C)C)C1 : IC50 was 1000 to 10000 nM

The recorded IC50 for entry CCN(c1nc(OC[C@]23CCCN2C[C@H](F)C3)nc2c(F)c(-c3ccc(F)c4sc(N)c(C#N)c34)c(C(F)(F)F)cc12)[C@H]1CCN(C(=O)OC)C1 (atropisomer, axis not shown) [Compound 955] equals > 10000 nM

IC50 for CN(Cc1ccccc1)c1nc(OC[C@@]23CCCN2C[C@H](F)C3)nc2c(F)c(-c3ccc(F)c4sc(N)c(C#N)c34)c(C(F)(F)F)cc12 (atropisomer, axis not shown) is > 10000 nM

Entry CCN(c1nc(OC[C@@]23CCCN2C[C@H](F)C3)nc2c(F)c(-c3ccc(F)c4sc(N)c(C#N)c34)c(C(F)(F)F)cc12)[C@H]1CCN(C(=O)N2CC3(CCO3)C2)C1 (atropisomer, axis not shown) ; IC50 = 100 to 1000 nM

Reported IC50 for CCN(c1nc(OC[C@@]23CCCN2C[C@H](F)C3)nc2c(F)c(-c3ccc(F)c4sc(N)c(C#N)c34)c(C(F)(F)F)cc12)[C@@H]1CCN(c2cccn(C)c2=O)C1 was 1000 to 10000 nM

Briefly, IC50 measured for CCN(c1nc(OC[C@@]23CCCN2C[C@H](F)C3)nc2c(F)c(-c3ccc(F)c4sc(N)c(C#N)c34)c(C(F)(F)F)cc12)[C@H]1C[C@H]2CN(CC(F)F)C(=O)N2C1 (atropisomer, axis not shown) : 100 to 1000 nM

IC50 measured on COC(=O)N1CC[C@H](N(CCF)c2nc(OC[C@@]34CCCN3C[C@H](F)C4)nc3c(F)c(-c4ccc(F)c5sc(N)c(C#N)c45)c(C(F)(F)F)cc23)C1 (atropisomer, axis not shown) = 1000 to 10000 nM

Per the record, N#Cc1c(N)sc2c(F)ccc(-c3c(C(F)(F)F)cc4c(N5CCCC[C@@H](O)C5)nc(OC[C@@]56CCCN5C[C@H](F)C6)nc4c3F)c12 has IC50 of 100 to 1000 nM

CCN(c1nc(OC[C@@]23CCCN2C[C@H](F)C3)nc2c(F)c(-c3ccc(F)c4sc(N)c(C#N)c34)c(C(F)(F)F)cc12)[C@H]1C[C@@H]2CN(C)C(=O)N2C1 (atropisomer, axis not shown) has a reported IC50 of 100 to 1000 nM

Field IC50 (entry CCN(c1nc(OC[C@@]23CCCN2C[C@H](F)C3)nc2c(F)c(-c3ccc(F)c4sc(N)c(C#N)c34)c(C(F)(F)F)cc12)[C@@H]1CC[C@@H](C(=O)N(C)C)C1 (atropisomer, axis not shown) ) reads 1000 to 10000 nM

Provenance of the data: patent US20260042764A1
